Sourced from patent US9561231B2

Listed here: items and their measured pKi.
# measurement.target: second (BD2: amino acids E352-E168) bromodomain of BRD4 (Homo sapiens, UniProt O60885)
# Construct: protocol
# method.summary: TR-FRET bromodomain binding assay, BRD4 BD2
# condition.description: TR-FRET assay protocol (A-G, compound concentration range); Ki calculated from IC50, probe Kd and probe concentration; read-out: TR-FRET Binding Ki: BRD4 (BDII_E352-M457)
pKi: −log10 of the molar value.
reported.metric: pKi

In [3]: df
Out[3]:
                                smiles_repr  reported_metric  limit_qualifier  numeric_result
0  COC(=O)c1ccccc1-c1cc(=O)n(C)nc1-c1ccccc1Oc1ccccc1              pKi                <            4.65
1  COCCNC(=O)c1ccc(-c2cc(=O)n(C)nc2-c2ccccc2Oc2ccccc2)cc1              pKi                =            6.26
2  COCCCNC(=O)c1ccc(-c2cc(=O)n(C)nc2-c2ccccc2Oc2ccccc2)cc1              pKi                =            6.67
3  CCS(=O)(=O)Nc1ccc(Oc2ccc(F)cc2F)c(-c2cn(C)c(=O)cc2-n2cccn2)c1              pKi                =            7.89
4  CC(C)CNC(=O)c1ccc(-c2cc(=O)n(C)nc2-c2ccccc2Oc2ccccc2)cc1              pKi                =            5.79
5  COc1ccc(-c2cc(=O)n(C)nc2-c2ccccc2Oc2ccccc2)cc1F              pKi                =            5.82
6  CCOc1cccc(-c2cc(=O)n(C)nc2-c2ccccc2Oc2ccccc2)c1F              pKi                =            5.17
7  Cn1nc(-c2ccccc2Oc2ccccc2)c(-c2ccc(S(=O)(=O)N3CCCC3)cc2)cc1=O              pKi                =            5.34

* * *

Listed here: items and their measured Ki.
# measurement.target: second (BD2: amino acids E352-E168) bromodomain of BRD4 (Homo sapiens, UniProt O60885)
# Construct: protocol
# method.summary: TR-FRET bromodomain binding assay, BRD4 BD2
# condition.description: TR-FRET assay protocol (A-G, compound concentration range); Ki calculated from IC50, probe Kd and probe concentration; read-out: TR-FRET Binding Ki: BRD4 (BDII_E352-M457)
reported.metric: Ki (nM)

>>> df
                                    compound  reported_metric  numeric_result
 0  COC(=O)C1CCN(c2cc(=O)n(C)nc2-c2ccccc2Oc2ccccc2)C1 (centres unmarked)               Ki            1080
 1  Cn1nc(-c2ccccc2Oc2ccccc2)c(-c2ccc(C(=O)N3CCCC3)cc2)cc1=O               Ki             166
 2  CCS(=O)(=O)c1ccc(OCC2CC2)c(-c2cc(NC(C)=O)c(=O)n(C)c2)c1               Ki            1170
 3  Cn1nc(-c2ccccc2Oc2ccccc2)c(-c2ccc(C(=O)N3CCOCC3)cc2)cc1=O               Ki             168
 4  CCN(CC)C(=O)c1cc(-c2cc(=O)n(C)nc2-c2ccccc2Oc2ccccc2)ccc1F               Ki            6160
 5  CCOc1cc(=O)n(C)cc1-c1cc(NC(=O)C2CCN(c3ccccc3)C2=O)ccc1Oc1ccc(F)cc1F (centres unmarked)               Ki              93
 6  CCS(=O)(=O)c1ccc(OCC2CC2)c(-c2cc(N)c(=O)n(C)c2)c1               Ki            1420
 7        Cc1cc(-c2ccccc2Oc2ccccc2)c[nH]c1=O               Ki             406
 8  CC(C)N1CCN(c2ccc(-c3cc(=O)n(C)nc3-c3ccccc3Oc3ccccc3)cc2)CC1               Ki            67.7
 9  CNc1ccc(-c2cc(=O)n(C)nc2-c2ccccc2Oc2ccccc2)cc1               Ki             162
10  CCS(=O)(=O)c1ccc(OCC2CC2)c(-c2cn(C)c(=O)cc2OC)c1               Ki             119
11  Cn1nc(-c2ccccc2Oc2ccccc2)c(-c2ccc(OCC(F)(F)F)nc2)cc1=O               Ki            8210
12  CCOc1cc(=O)n(C)cc1-c1cc(NC(=O)CCC(C)C)ccc1Oc1ccc(F)cc1F               Ki            54.5
13  Cn1nc(-c2ccccc2Oc2ccccc2)c(-c2ccc3c(c2)OCCO3)cc1=O               Ki             159
14  Cn1nc(-c2ccccc2Oc2ccccc2)c(-c2cnn(CCN3CCOCC3)c2)cc1=O               Ki             593
15  CCOc1cc(=O)n(C)cc1-c1cc(NS(C)(=O)=O)ccc1Oc1ccc(F)cc1F               Ki            5.29
16  CCS(=O)(=O)Nc1ccc(Oc2ccc(F)cc2F)c(-c2cn(C)c(=O)cc2-c2ccc(N3CCOCC3)cc2)c1               Ki            1.84
